B1: library; a variant is named by its letters at N, in order (parent)
chain: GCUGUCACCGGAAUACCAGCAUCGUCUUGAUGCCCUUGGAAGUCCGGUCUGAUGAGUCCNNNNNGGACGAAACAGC

variants of: B1; test: FACS-Seq fitted mean relative fluorescence mCherry/BFP with ligand (log10 relative fluorescence); ligand concentration (+) FACS-Seq: 1 mM; higher = higher reporter protein expression; details: HEK293T, ligand present: yes
resultType: FACS-Seq fitted mean (log10)

1. UUAUG = 0.821
2. UAUAC = 0.749
3. AAGCU = 1.11
4. CUCAU = 1.07
5. AGAUG = 0.49
6. UGCCU = 0.867
7. AAGGG = 0.381
8. AGAAA = 0.515
9. GACGG = 0.887
10. UAUGG = 0.992
11. UGCGU = 0.761

Where these numbers come from: the supplement of paper PMC6757056
